Data credit: patent US12662479B2

# ASSAY TARGET: HiBit-BRG1 fusion protein (Homo sapiens)
# Construct: expressed in transfected cells
# EXPERIMENTAL PROTOCOL: HiBiT-BRG1 cell-based degradation assay (Nano-Glo HiBiT Lytic Detection, 24 h)
# MEASUREMENT CONDITIONS: HeLa cells expressing HiBit-BRG1 and LgBit, read-out: BRG1 HiBit Degradation IC50
# Experimental: Procedure: A stable HeLa cell line expressing HiBiT-BRM was generated. On day 0, 5000 cells were seeded in 40 μL of media into each well of 384-well cell culture plates. […] The plates were shaken for 10 minutes at room temperature and the bioluminescence read using an EnVision plate reader (PerkinElmer). […] The degradation % was calculated using the following formula: % degradation=100%−100%×(LumSample−LumLC)/(LumHC−LumLC). […]
# DC50 listing for each entry below

Some compounds with recorded DC50:
* CS(=O)(=O)n1ccc(C(=O)N[C@@H](COCc2ccc(C(=O)NCCC3CCN(c4ccc5c(c4)C(=O)N(C4CCC(=O)NC4=O)C5=O)CC3)cc2)C(=O)Nc2nc(-c3ccccc3)cs2)c1 (stereo partly drawn) | < 0.1 µM
* CS(=O)(=O)n1ccc(C(=O)NCC(=O)Nc2nc(-c3cccc(-c4ccnc(C5(C(=O)NCCNc6ccc7c(c6)CN(C6CCC(=O)NC6=O)C7=O)CC5)c4)c3)cs2)c1 (stereo not drawn) | < 0.1 µM

For the compound CS(=O)(=O)n1ccc(C(=O)N[C@@H](COCc2ccc(C(=O)NCCOc3cccc(OCCNc4ccc5c(c4)C(=O)N(C4CCC(=O)NC4=O)C5=O)c3)cc2)C(=O)Nc2nc(-c3ccccc3)cs2)c1 (stereo partly drawn) , what DC50 is on record? 0.1 to 1 µM

* * *

# ASSAY TARGET: HiBit-BRG1 fusion protein (Homo sapiens, UniProt P51532)
# Construct: expressed in transfected cells
# Sequence (P51532 whole entry, the tested form may be a part): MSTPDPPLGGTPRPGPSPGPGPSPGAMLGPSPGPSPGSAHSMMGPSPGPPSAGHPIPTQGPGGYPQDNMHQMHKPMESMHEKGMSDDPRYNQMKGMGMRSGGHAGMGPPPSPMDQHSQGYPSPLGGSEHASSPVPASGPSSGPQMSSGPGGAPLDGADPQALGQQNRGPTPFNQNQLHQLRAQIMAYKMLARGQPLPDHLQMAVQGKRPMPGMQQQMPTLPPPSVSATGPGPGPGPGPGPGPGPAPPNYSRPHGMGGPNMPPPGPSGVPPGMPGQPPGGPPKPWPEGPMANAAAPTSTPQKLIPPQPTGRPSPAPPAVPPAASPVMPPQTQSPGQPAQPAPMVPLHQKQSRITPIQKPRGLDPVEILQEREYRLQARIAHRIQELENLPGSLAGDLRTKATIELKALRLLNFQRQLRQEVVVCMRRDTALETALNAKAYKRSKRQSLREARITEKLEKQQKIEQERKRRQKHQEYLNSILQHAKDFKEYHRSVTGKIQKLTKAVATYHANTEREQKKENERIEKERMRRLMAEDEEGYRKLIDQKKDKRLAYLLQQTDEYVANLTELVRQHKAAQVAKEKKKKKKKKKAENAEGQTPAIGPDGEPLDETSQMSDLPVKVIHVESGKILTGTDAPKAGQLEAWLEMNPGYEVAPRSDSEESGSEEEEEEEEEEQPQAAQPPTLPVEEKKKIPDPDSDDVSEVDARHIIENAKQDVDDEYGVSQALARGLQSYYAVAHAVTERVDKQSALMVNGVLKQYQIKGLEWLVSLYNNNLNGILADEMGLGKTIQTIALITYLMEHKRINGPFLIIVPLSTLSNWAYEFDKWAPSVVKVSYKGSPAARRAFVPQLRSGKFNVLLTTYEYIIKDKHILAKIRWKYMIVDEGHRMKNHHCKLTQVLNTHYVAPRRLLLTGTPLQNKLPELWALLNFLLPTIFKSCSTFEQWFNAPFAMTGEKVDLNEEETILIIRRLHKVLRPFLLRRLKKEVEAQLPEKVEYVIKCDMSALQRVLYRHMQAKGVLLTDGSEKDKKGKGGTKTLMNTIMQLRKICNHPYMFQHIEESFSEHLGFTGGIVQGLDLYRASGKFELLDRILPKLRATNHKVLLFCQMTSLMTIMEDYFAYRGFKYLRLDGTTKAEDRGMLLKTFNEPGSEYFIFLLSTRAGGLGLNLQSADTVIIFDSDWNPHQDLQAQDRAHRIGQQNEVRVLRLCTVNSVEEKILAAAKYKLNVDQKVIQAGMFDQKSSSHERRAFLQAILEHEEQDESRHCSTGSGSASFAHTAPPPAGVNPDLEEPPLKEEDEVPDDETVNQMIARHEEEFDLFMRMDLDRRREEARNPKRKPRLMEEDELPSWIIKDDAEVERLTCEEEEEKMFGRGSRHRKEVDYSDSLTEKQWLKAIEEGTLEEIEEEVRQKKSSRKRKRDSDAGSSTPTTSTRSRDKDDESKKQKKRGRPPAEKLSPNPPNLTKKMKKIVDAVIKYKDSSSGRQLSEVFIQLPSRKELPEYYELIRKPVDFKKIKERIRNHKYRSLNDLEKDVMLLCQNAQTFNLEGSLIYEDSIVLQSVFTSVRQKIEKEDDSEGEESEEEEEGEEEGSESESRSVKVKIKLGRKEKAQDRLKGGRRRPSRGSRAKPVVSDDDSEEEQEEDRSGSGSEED
# EXPERIMENTAL PROTOCOL: HiBiT-BRG1 cell-based degradation assay (Nano-Glo HiBiT Lytic Detection, 24 h)
# MEASUREMENT CONDITIONS: HeLa cells expressing HiBit-BRG1 and LgBit, read-out: BRG1 HiBit Degradation IC50
VALUE TYPE: DC50

• Cc1cc(C(=O)NCC(=O)Nc2nc(-c3cccc(-c4ccnc(N(C)CC(=O)NCCOCCOCCNc5cccc6c5C(=O)N(C5CCC(=O)NC5=O)C6=O)c4)c3)cs2)cn1S(C)(=O)=O (stereo not drawn) = > 10 µM

For the compound Cc1ncsc1-c1ccc(CNC(=O)[C@@H]2C[C@@H](O)CN2C(=O)[C@@H](NC(=O)COCCOCCNC(=O)C2(c3cc(-c4cccc(-c5csc(NC(=O)CNC(=O)c6ccn(S(C)(=O)=O)c6)n5)c4)ccn3)CC2)C(C)(C)C)cc1 , what DC50 is on record? 0.1 to 1 µM

For the compound CS(=O)(=O)n1ccc(C(=O)NCC(=O)Nc2nc(-c3cccc(-c4cccc(CNC(=O)CCCCCCCCCCNc5ccc6c(c5)C(=O)N(C5CCC(=O)NC5=O)C6=O)c4)c3)cs2)c1 (stereo not drawn) , what DC50 is on record? 0.1 to 1 µM

For the compound CS(=O)(=O)n1ccc(C(=O)N[C@@H](COCc2ccc(C(=O)NCCOc3ccc4c(c3)C(=O)N(C3CCC(=O)NC3=O)C4=O)cc2)C(=O)Nc2nc(-c3ccccc3)cs2)c1 (stereo partly drawn) , what DC50 is on record? > 10 µM

* * *

# ASSAY TARGET: HiBit-BRG1 fusion protein (Homo sapiens)
# Construct: expressed in transfected cells
# EXPERIMENTAL PROTOCOL: HiBiT-BRG1 cell-based degradation assay (Nano-Glo HiBiT Lytic Detection, 24 h)
# MEASUREMENT CONDITIONS: HeLa, HeLa cells expressing HiBit-BRG1 and LgBit, top dose 30 μM, read-out: BRG1 HiBit Degradation Maximum measured
# Protocol: Procedure: A stable HeLa cell line expressing HiBiT-BRM was generated. On day 0, 5000 cells were seeded in 40 μL of media into each well of 384-well cell culture plates. […] The plates were shaken for 10 minutes at room temperature and the bioluminescence read using an EnVision plate reader (PerkinElmer). […] The degradation % was calculated using the following formula: % degradation=100%−100%×(LumSample−LumLC)/(LumHC−LumLC). […]
VALUE TYPE: Dmax

For the molecule CS(=O)(=O)n1ccc(C(=O)N[C@@H](CCOCCCC(=O)N2CCN(CCCC#Cc3ccc4c(c3)C(=O)N(C3CCC(=O)NC3=O)C4=O)CC2)C(=O)Nc2nc(-c3ccccc3)cs2)c1 (stereo partly drawn) , what Dmax is on record? < 50%

For the molecule CS(=O)(=O)n1ccc(C(=O)NCC(=O)Nc2nc(-c3cccc(-c4ccnc(N5CCN(C(=O)CCOCCOCCOc6cccc7c6C(=O)N(C6CCC(=O)NC6=O)C7=O)CC5)c4)c3)cs2)c1 (stereo not drawn) , what Dmax is on record? 50 to 75%

For the molecule Cc1ncsc1-c1ccc(CNC(=O)[C@@H]2C[C@@H](O)CN2C(=O)[C@@H](NC(=O)COCCOCCOCCNC(=O)CCCOC[C@H](NC(=O)c2ccn(S(C)(=O)=O)c2)C(=O)Nc2nc(-c3ccccc3)cs2)C(C)(C)C)cc1 , what Dmax is on record? < 50%

For the molecule CS(=O)(=O)n1ccc(C(=O)N[C@@H](CCOCCCC(=O)NCCOCc2cccc(COCCOc3ccc4c(c3)C(=O)N(C3CCC(=O)NC3=O)C4=O)c2)C(=O)Nc2nc(-c3ccccc3)cs2)c1 (stereo partly drawn) , what Dmax is on record? < 50%

For the molecule CS(=O)(=O)n1ccc(C(=O)N[C@@H](CCOCCCC(=O)N2CCN(CCOc3ccc4c(c3)C(=O)N(C3CCC(=O)NC3=O)C4=O)CC2)C(=O)Nc2nc(-c3ccccc3)cs2)c1 (stereo partly drawn) , what Dmax is on record? < 50%

* * *

# ASSAY TARGET: HiBit-BRG1 fusion protein (Homo sapiens, UniProt P51532)
# Construct: expressed in transfected cells
# EXPERIMENTAL PROTOCOL: HiBiT-BRG1 cell-based degradation assay (Nano-Glo HiBiT Lytic Detection, 24 h)
# MEASUREMENT CONDITIONS: HeLa, HeLa cells expressing HiBit-BRG1 and LgBit, top dose 30 μM, read-out: BRG1 HiBit Degradation Maximum measured
Counter-ions that a name gives are not always drawn.
VALUE TYPE: Dmax

- CS(=O)(=O)n1ccc(C(=O)NCC(=O)Nc2nc(-c3cccc(-c4ccnc(C5(C(=O)NCCNc6ccc7c(c6)C(=O)N(C6CCC(=O)NC6=O)C7)CC5)c4)c3)cs2)c1 (stereo not drawn) [Compound 168]: > 75%
- CS(=O)(=O)n1ccc(C(=O)N[C@@H](COCc2ccc(C(=O)N3CCC(CCCCN4CCN(c5ccc6c(c5)C(=O)N(C5CCC(=O)NC5=O)C6=O)CC4)CC3)cc2)C(=O)Nc2nc(-c3ccccc3)cs2)c1 (stereo partly drawn) [Compound 195, formate]: < 50%
- CS(=O)(=O)n1ccc(C(=O)N[C@@H](CCCCNC(=O)CCCCOc2cccc3c2C(=O)N(C2CCC(=O)NC2=O)C3=O)C(=O)Nc2nc(-c3ccccc3)cs2)c1 (stereo partly drawn) [Compound 295]: < 50%
- CS(=O)(=O)n1ccc(C(=O)N[C@@H](CCCCNC(=O)CCN2CCN(c3ccc4c(c3)C(=O)N(C3CCC(=O)NC3=O)C4=O)CC2)C(=O)Nc2nc(-c3ccccc3)cs2)c1 (stereo partly drawn) [Compound 297]: < 50%
- Cc1ncsc1-c1ccc(CNC(=O)[C@@H]2C[C@@H](O)CN2C(=O)[C@@H](NC(=O)CCCCCC(=O)NCc2cccc(-c3cccc(-c4csc(NC(=O)CNC(=O)c5ccn(S(C)(=O)=O)c5)n4)c3)c2)C(C)(C)C)cc1 [Compound 62]: > 75%
- CS(=O)(=O)n1ccc(C(=O)N[C@@H](CCCCNC(=O)CCN2CC3(C2)CN(c2ccc4c(c2)C(=O)N(C2CCC(=O)NC2=O)C4=O)C3)C(=O)Nc2nc(-c3ccccc3)cs2)c1 (stereo partly drawn) [Compound 294]: < 50%
- CC(C)(C(=O)NCCCCCNc1cccc2c1C(=O)N(C1CCC(=O)NC1=O)C2=O)n1ccc(-c2cccc(-c3csc(NC(=O)CNC(=O)c4ccn(S(C)(=O)=O)c4)n3)c2)n1 (stereo not drawn) [Compound 7]: < 50%
- CN(CCNc1ccc2c(c1)C(=O)N(C1CCC(=O)NC1=O)C2=O)C(=O)C1(c2cc(-c3cccc(-c4csc(NC(=O)CNC(=O)c5ccn(S(C)(=O)=O)c5)n4)c3)ccn2)CC1 (stereo not drawn) [Compound 162]: < 50%

Okay, next one:
For the compound Cc1ncsc1-c1ccc(CNC(=O)[C@@H]2C[C@@H](O)CN2C(=O)[C@@H](NC(=O)COCCOCCNC(=O)C2(c3cc(-c4cccc(-c5csc(NC(=O)CNC(=O)c6ccn(S(C)(=O)=O)c6)n5)c4)ccn3)CC2)C(C)(C)C)cc1 [Compound 108] , what Dmax is on record? > 75%
